Experiment: refractive index (Na D-line) (dimensionless)
Settings: 298.15 K; 101.33 kPa; Liquid; Abbe refractometer
endpoint label: refractive index
Reply with just the number.

// below: answered compounds
>>> reported("CCCCCCCCCCCC [dodecane]")
1.4275
>>> reported("Cc1ccc(C)cc1 [1,4-dimethylbenzene]")
1.4925
>>> reported("CCCCCC [hexane]")
1.3728
>>> reported("Cc1cccc(C)c1 [1,3-dimethylbenzene]")
1.4943
>>> reported("c1ccccc1 [benzene]")
1.499

Challenge: Fill blank: measured refractive index of the compound CCCCCCCCCCCCCCCC [hexadecane] is ____.
Response given: 1.4325

Challenge: Fill blank: measured refractive index of the compound Cc1ccccc1 [toluene] is ____.
Response given: 1.494

Challenge: Fill blank: measured refractive index of the compound Cc1ccccc1C [1,2-dimethylbenzene] is ____.
Response given: 1.5018
